- experimental system: UniProt:Q9Y233
- Sequence (Q9Y233 whole entry): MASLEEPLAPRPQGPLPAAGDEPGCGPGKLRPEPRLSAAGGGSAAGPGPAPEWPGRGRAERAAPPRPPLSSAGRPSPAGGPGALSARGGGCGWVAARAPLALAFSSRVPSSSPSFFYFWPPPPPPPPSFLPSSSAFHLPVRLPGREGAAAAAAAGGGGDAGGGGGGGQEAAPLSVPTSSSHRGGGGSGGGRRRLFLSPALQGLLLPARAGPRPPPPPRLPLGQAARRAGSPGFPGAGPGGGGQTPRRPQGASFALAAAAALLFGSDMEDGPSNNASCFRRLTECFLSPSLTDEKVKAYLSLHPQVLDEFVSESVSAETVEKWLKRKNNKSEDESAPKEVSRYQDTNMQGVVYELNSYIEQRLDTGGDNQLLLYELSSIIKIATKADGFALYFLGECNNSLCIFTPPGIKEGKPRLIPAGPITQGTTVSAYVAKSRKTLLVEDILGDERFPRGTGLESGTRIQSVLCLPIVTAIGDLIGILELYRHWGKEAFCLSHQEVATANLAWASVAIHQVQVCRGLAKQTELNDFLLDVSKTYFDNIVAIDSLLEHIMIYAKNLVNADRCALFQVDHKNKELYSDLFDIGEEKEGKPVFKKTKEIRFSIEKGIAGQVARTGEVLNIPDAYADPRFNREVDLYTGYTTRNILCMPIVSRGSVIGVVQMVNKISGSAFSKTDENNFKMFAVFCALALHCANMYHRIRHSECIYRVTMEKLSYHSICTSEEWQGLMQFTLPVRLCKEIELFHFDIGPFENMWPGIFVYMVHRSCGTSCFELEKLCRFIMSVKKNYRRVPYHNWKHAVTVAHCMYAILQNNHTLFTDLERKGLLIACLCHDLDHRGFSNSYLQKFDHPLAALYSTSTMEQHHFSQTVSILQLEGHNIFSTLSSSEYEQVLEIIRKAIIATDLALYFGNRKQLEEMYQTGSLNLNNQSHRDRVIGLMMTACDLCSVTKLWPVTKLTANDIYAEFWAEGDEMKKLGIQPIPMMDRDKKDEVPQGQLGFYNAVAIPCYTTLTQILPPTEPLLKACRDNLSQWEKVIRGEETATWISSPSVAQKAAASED
- protocol notes: Inhibition of PDE10A
Could you please report measured Ki for the items listed next?
Numbers only, in nM.

Take a look at these entries with their results.
1. COc1cc2ncnc(N3CC[C@@H](Oc4ccccc4OC)C3)c2cc1OC	240
2. COc1cc2ncnc(N3CC[C@@H](Oc4ccc(C(C)(C)C)cc4)C3)c2cc1OC	100
3. COc1cc2ncnc(N3CC[C@@H](Oc4ccc5nc(C)ccc5c4)C3)c2cc1OC	18
4. COc1cc2ncnc(N3CC[C@@H](Oc4ccc(OC(F)(F)F)cc4)C3)c2cc1OC	185
5. COc1ccc(O[C@@H]2CCN(c3ncnc4cc(OC)c(OC)cc34)C2)cc1OC	67
6. COc1cc2ncnc(N3CC[C@@H](Oc4ccccn4)C3)c2cc1OC	123
7. CCOc1ccc(O[C@@H]2CCN(c3ncnc4cc(OC)c(OC)cc34)C2)cc1	54
8. COc1cc2ncnc(N3CC[C@@H](Oc4cccc(-c5ccccc5)c4)C3)c2cc1OC	136

// sample `COc1cc2ncnc(N3CC[C@@H](Oc4ncc(Cl)cn4)C3)c2cc1OC` , its Ki was 44

Numbers sourced from ChEMBL document CHEMBL1142418.
